System tested: KRAS Q61H (Homo sapiens (Human), UniProt P01116+P62937, Q61H)
Sequence (P01116-2 other isoform, or with tags, fused parts or gaps Q61H, one chain of several): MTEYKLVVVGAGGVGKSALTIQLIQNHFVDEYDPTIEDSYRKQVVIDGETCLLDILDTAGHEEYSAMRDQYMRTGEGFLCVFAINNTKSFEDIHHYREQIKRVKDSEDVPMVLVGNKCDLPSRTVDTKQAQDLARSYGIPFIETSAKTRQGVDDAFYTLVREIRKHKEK
Assay procedure: Ras-Raf (BRAF RBD) disruption / FRET / MOA assay, KRAS Q61H
Format: biochemical
Study conditions: Ras-Raf disruption/FRET/MOA assay; class symbols; read-out: KRAS Q61H FRET data IC50
Protocol: The purpose of this biochemical assay is to measure the ability of test compounds to facilitate ternary complex formation between a nucleotide-loaded Ras isoform and cyclophilin A; the resulting ternary complex disrupts binding to a BRAF^RBD construct, inhibiting Ras signaling through a RAF effector. […]. Compound is present in plate wells as a 10-point 3-fold dilution series starting at a final concentration of 30 μM. […]
Overview of reported IC50 across a group of compounds:

Worked cases, IC50 given:
{"Compound": "C=CC(=O)Nc1ncc(C(=O)N(C)[C@H](C(=O)N[C@H]2Cc3cccc(c3)-c3ccc4c(c3)c(c(-c3cccnc3[C@H](C)OC)n4CC)CC(C)(C)COC(=O)[C@@H]3CCCN(N3)C2=O)C(C)C)n1C (atropisomer, axis not shown) [Example A474]", "System tested": "KRAS Q61H (Homo sapiens (Human), UniProt P01116+P62937, Q61H)", "Data value": "100 to 1000 nM"}
{"Compound": "C=CC(=O)N1CC[C@H](C(=O)N(C)[C@H](C(=O)N[C@H]2Cc3cc(cc(C(F)F)c3)-c3ccc4c(c3)c(c(-c3cccnc3[C@H](C)OC)n4CC)CC(C)(C)COC(=O)[C@@H]3CCCN(N3)C2=O)C(C)C)C1 (atropisomer, axis not shown)", "System tested": "KRAS Q61H (Homo sapiens (Human), UniProt P01116+P62937, Q61H)", "Data value": "100 to 1000 nM"}
{"Compound": "C=CC(=O)C1C[C@@H](C(=O)N(C)[C@H](C(=O)N[C@H]2Cc3cc(O)cc(c3)-c3ccc4c(n3)c(c(-c3ccccc3CCOC)n4CC)CC(C)(C)COC(=O)[C@@H]3CCCN(N3)C2=O)C(C)C)CN1 (stereo partly shown)", "System tested": "KRAS Q61H (Homo sapiens (Human), UniProt P01116+P62937, Q61H)", "Data value": "1000 to 10000 nM"}

## Input What does the record list as IC50 for C=CC(=O)N1CC2(CCCN2C(=O)N(C)[C@H](C(=O)N[C@H]2Cc3nc(cs3)-c3ccc4c(c3)c(c(-c3cccnc3[C@H](C)OC)n4CC)CC(C)(C)COC(=O)[C@@H]3CCCN(N3)C2=O)C(C)C)C1 (atropisomer, axis not shown) ?
## Output 10 to 100 nM

---

Reported pIC50 is given for each of the following molecules.
System tested: KRAS G12V (Homo sapiens (Human), UniProt P01116+P62937, G12V)
Sequence (P01116-2 other isoform, or with tags, fused parts or gaps G12V, one chain of several): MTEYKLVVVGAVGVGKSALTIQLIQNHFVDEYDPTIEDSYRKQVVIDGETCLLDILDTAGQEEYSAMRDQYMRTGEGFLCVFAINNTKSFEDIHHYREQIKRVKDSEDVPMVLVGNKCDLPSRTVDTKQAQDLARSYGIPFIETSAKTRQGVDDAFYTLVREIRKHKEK
Assay procedure: Ras-Raf (BRAF RBD) disruption / FRET / MOA assay, KRAS G12V
Format: biochemical
Study conditions: read-out: IC50* KRAS G12V FRET data
pIC50: −log10 of the molar value.

Here are 2 molecules together with their reported answers.
{"Molecule": "C=CC(=O)N1CC(OCC(C(=O)N[C@H]2Cc3cccc(c3)-c3ccc4c(c3)c(c(-c3cccnc3[C@H](C)OC)n4CC)CC(C)(C)COC(=O)[C@@H]3CCCN(N3)C2=O)C(C)C)C1 (stereo partly drawn) [Example A483]", "pIC50": "5.00 to 6.00"}
{"Molecule": "C=CC(=O)N1CCC(C(=O)N(C)[C@H](C(=O)N[C@H]2CCC(=O)N(C)Cc3ccc4c(c3)c(c(-c3cccnc3[C@H](C)OC)n4CC)CC(C)(C)COC(=O)[C@@H]3CCCN(N3)C2=O)C(C)C)C1 (atropisomer, axis not shown)", "pIC50": "< 5.00"}

## Input Given C=CC(=O)C1CC[C@H](C(=O)N(C)[C@H](C(=O)N[C@H]2Cc3nsc(n3)-c3ccc4c(c3)c(c(-c3cccnc3[C@H](C)OC)n4CC)CC(C)(C)COC(=O)[C@@H]3CCCN(N3)C2=O)C(C)C)C1 (stereo partly drawn) , state its recorded pIC50.
## Output 5.00 to 6.00

---

System tested: NRAS Q61K (Homo sapiens (Human), UniProt P01111+P62937, Q61K)
Sequence (P01111 whole entry Q61K, one chain of several): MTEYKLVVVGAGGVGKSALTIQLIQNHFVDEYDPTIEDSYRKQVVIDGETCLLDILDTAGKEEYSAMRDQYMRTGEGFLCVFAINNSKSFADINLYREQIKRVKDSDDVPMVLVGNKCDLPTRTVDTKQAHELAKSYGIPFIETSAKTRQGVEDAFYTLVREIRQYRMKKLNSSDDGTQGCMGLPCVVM
Assay procedure: Ras-Raf (BRAF RBD) disruption / FRET / MOA assay, NRAS Q61K
Type: biochemical
Study conditions: NRAS Q61K; Ras-Raf disruption/FRET/MOA assay; read-out: IC50* NRAS Q61K FRET data
# IC50 annotations

{"Compound": "C=CC(=O)C1CC[C@H](C(=O)N(C)[C@H](C(=O)N[C@H]2Cc3cc(O)cc(c3)-c3ccc4c(c3)c(c(-c3cnn(C)c3[C@H](C)OC)n4CC)CC(C)(C)COC(=O)[C@@H]3CCCN(N3)C2=O)C(C)C)C1 (some centres unmarked) [Example A166]", "System tested": "NRAS Q61K (Homo sapiens (Human), UniProt P01111+P62937, Q61K)", "IC50": "1 to 10 µM"}

Please find the next compound below.
## Input Which measured IC50 belongs to C=CC(=O)N1CC[C@]2(C1)OCN([C@H](C(=O)N[C@H]1Cc3cccc(c3)-c3ccc4c(c3)c(c(-c3cccnc3[C@H](C)OC)n4CC)CC(C)(C)COC(=O)[C@@H]3CCCN(N3)C1=O)C(C)C)C2=O (atropisomer, axis not shown) [Example A371] , tested on NRAS Q61K (Homo sapiens (Human), UniProt P01111+P62937, Q61K)?
## Output > 10 µM

---

System tested: KRAS G13D (Homo sapiens (Human), UniProt P01116+P62937, G13D)
Sequence (P01116-2 other isoform, or with tags, fused parts or gaps G13D): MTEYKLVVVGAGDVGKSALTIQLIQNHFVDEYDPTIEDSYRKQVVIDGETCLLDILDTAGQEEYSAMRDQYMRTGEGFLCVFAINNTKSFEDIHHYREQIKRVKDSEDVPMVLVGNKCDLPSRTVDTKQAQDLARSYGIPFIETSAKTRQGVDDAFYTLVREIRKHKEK
Sequence (P62937 whole entry): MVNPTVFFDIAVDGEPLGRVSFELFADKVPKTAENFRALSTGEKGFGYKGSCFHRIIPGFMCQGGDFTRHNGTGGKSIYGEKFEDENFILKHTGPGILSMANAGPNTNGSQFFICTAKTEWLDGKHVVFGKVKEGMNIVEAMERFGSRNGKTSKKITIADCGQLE
Assay procedure: Ras-Raf (BRAF RBD) disruption / FRET / MOA assay, KRAS G13D
Type: biochemical
Study conditions: read-out: IC50* KRAS G13D FRET data
Consider the following compounds and their measured IC50 readings.

Solved entries:
{"Compound": "C=CC(=O)N1CC[C@H](C(=O)N(C)[C@H](C(=O)N[C@H]2Cc3cc(O)cc(c3)-c3cc4c(c(-c5ccccc5CCOC)n(CC)c4cn3)CC(C)(C)COC(=O)[C@@H]3CCCN(N3)C2=O)C(C)C)C1 [Example A102]", "System tested": "KRAS G13D (Homo sapiens (Human), UniProt P01116+P62937, G13D)", "Measure name": "IC50", "Data value": "> 10 µM"}
{"Compound": "C=CC(=O)N(C)CC(=O)N(C)[C@H](C(=O)N[C@H]1Cc2cc(O)cc(c2)-c2ccc3c(c2)c(c(-c2cccnc2COC)n3CC)CC(C)(C)COC(=O)[C@@H]2CCCN(N2)C1=O)C(C)C [Example A147]", "System tested": "KRAS G13D (Homo sapiens (Human), UniProt P01116+P62937, G13D)", "Measure name": "IC50", "Data value": "1 to 10 µM"}
{"Compound": "C=CC(=O)N(C)[C@H](C(=O)N[C@H]1Cc2cc(O)cc(c2)-c2ccc3c(c2)c(c(-c2cccnc2COC)n3CC)CC(C)(C)COC(=O)[C@@H]2CCCN(N2)C1=O)C(C)C [Example A110]", "System tested": "KRAS G13D (Homo sapiens (Human), UniProt P01116+P62937, G13D)", "Measure name": "IC50", "Data value": "1 to 10 µM"}
{"Compound": "C=C(OC)C(=O)N1CC(N(C)C(=O)N(C)[C@H](C(=O)N[C@H]2Cc3nc(cs3)-c3ccc4c(c3)c(c(-c3cccnc3[C@H](C)OC)n4CC)CC(C)(C)COC(=O)[C@@H]3CCCN(N3)C2=O)C(C)C)C1 (atropisomer, axis not shown) [Example A713]", "System tested": "KRAS G13D (Homo sapiens (Human), UniProt P01116+P62937, G13D)", "Measure name": "IC50", "Data value": "1 to 10 µM"}
{"Compound": "CCn1c(-c2cccnc2)c2c3cc(ccc31)-c1csc(n1)C[C@H](NC(=O)[C@H](C(C)C)N(C)C(=O)[C@H]1CCN(C(=O)C#CCN3CCOCC3)C1)C(=O)N1CCC[C@H](N1)C(=O)OCC(C)(C)C2 [Example A190]", "System tested": "KRAS G13D (Homo sapiens (Human), UniProt P01116+P62937, G13D)", "Measure name": "IC50", "Data value": "> 10 µM"}
{"Compound": "C=CC(=O)N1CC[C@H](C(=O)N(C)[C@H](C(=O)N[C@H]2Cc3cc(O)cc(c3)-c3ccc4c(c3)c(c(-c3ccncc3CN(C)C)n4CC)CC(C)(C)COC(=O)[C@@H]3CCCN(N3)C2=O)C(C)C)C1 [Example A128]", "System tested": "KRAS G13D (Homo sapiens (Human), UniProt P01116+P62937, G13D)", "Measure name": "IC50", "Data value": "0.1 to 1 µM"}
{"Compound": "C=CC(=O)N1CC[C@@H]2[C@H](C1)CN2C(=O)N(C)[C@H](C(=O)N[C@H]1Cc2nc(cs2)-c2ccc3c(c2)c(c(-c2cccnc2[C@H](C)OC)n3CC)CC(C)(C)COC(=O)[C@@H]2CCCN(N2)C1=O)C(C)C (atropisomer, axis not shown) [Example A688]", "System tested": "KRAS G13D (Homo sapiens (Human), UniProt P01116+P62937, G13D)", "Measure name": "IC50", "Data value": "1 to 10 µM"}

Then this compound:
## Input Item under review: CO[C@@H](COC1CN(C(=O)C#CC(C)(C)N(C)C)C1)C(=O)N[C@H]1Cc2coc(n2)-c2ccc3c(c2)c(c(-c2cccnc2[C@H](C)OC)n3CC(F)(F)F)CC(C)(C)COC(=O)[C@@H]2CCCN(N2)C1=O (atropisomer, axis not shown) [Example A579] . Reported IC50?
## Output > 10 µM
